Target: KRAS Q61H (Homo sapiens, UniProt P01116+P62937, Q61H)
Sequence (P01116 1-169 isoform P01116-2 Q61H limits assumed): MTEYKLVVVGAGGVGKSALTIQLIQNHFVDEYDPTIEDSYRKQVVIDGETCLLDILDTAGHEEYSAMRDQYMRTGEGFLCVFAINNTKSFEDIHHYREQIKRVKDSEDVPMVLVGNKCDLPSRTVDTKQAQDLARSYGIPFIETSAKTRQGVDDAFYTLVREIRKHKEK
Sequence (P62937 whole entry): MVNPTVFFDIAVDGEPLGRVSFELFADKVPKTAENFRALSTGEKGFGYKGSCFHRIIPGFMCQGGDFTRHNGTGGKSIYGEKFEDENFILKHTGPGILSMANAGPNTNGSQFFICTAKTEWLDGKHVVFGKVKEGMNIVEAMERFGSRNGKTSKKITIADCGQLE
Experiment: Disruption of BRAF RBD interaction with Ras (FRET / MOA assay, with Cyclophilin A)
Assay type: biochemical
Settings: KRAS Q61H; read-out: KRAS Q61H FRET data IC50
Measured quantity: IC50

q: Given "CCn1c(-c2cccnc2[C@H](C)OC)c2c3cc(ccc31)-c1csc(n1)C[C@H](NC(=O)[C@H](C(C)C)N(C)C(=O)N1CCOC[C@@H]1c1ccccc1)C(=O)N1CCC[C@H](N1)C(=O)OCC(C)(C)C2" , respond with its IC50.
a: 100 to 1000 nM

q: Given CCn1c(-c2cccnc2[C@H](C)OC)c2c3cc(ccc31)-c1cc(O)cc(c1)C[C@H](NC(=O)[C@H](C(C)C)N(C)C(=O)C1CCC(C3CCCO3)O1)C(=O)N1CCC[C@H](N1)C(=O)OCC(C)(C)C2 (some centres unmarked) , respond with its IC50.
a: 10 to 100 nM

q: Given CCn1c(-c2cccnc2[C@H](C)OC)c2c3cc(ccc31)-c1csc(n1)C[C@H](NC(=O)[C@H](C(C)C)N(C)C(=O)N1CC3(CC(O)C3)C1)C(=O)N1CCC[C@H](N1)C(=O)OCC(C)(C)C2 (atropisomer, axis not shown) , respond with its IC50.
a: 10 to 100 nM

q: Given CCn1c(-c2cccnc2[C@H](C)OC)c2c3cc(ccc31)-c1csc(n1)C[C@H](NC(=O)[C@H](C(C)C)N(C)C(=O)N1CC3(CN(C)C3)C1)C(=O)N1CCC[C@H](N1)C(=O)OCC(C)(C)C2 (atropisomer, axis not shown) , respond with its IC50.
a: 10 to 100 nM

q: Given "CCn1c(-c2cnccc2COC)c2c3cc(ccc31)-c1cc(O)cc(c1)C[C@H](NC(=O)[C@H](C(C)C)N(C)S(C)(=O)=O)C(=O)N1CCC[C@H](N1)C(=O)OCC(C)(C)C2" , respond with its IC50.
a: 100 to 1000 nM

q: Given "CCn1c(-c2cccnc2[C@H](C)OC)c2c3cc(ccc31)-c1csc(n1)C[C@H](NC(=O)[C@H](C(C)C)N(C)C(=O)N1C[C@H](C)N(C)C[C@@H]1C)C(=O)N1CCC[C@H](N1)C(=O)OCC(C)(C)C2" , respond with its IC50.
a: 100 to 1000 nM

q: Given "C=CC(=O)N1CC[C@H](C(=O)N(C)[C@H](C(=O)N[C@H]2Cc3cc(O)cc(c3)-c3ccc4c(c3)c(c(-c3c(CCOC)cccc3OC)n4CC)CC(C)(C)COC(=O)[C@@H]3CCCN(N3)C2=O)C(C)C)C1" , respond with its IC50.
a: 1000 to 10000 nM

q: Given "CCn1c(-c2cccnc2[C@H](C)OC)c2c3cc(ccc31)-c1csc(n1)C[C@H](NC(=O)[C@H](C(C)C)N(C)C(=O)N1CC[C@@H]1C(=O)NC)C(=O)N1CCC[C@H](N1)C(=O)OCC(C)(C)C2" , respond with its IC50.
a: 100 to 1000 nM

q: Given "CCn1c(-c2cnccc2COC)c2c3cc(ccc31)-c1cc(O)cc(c1)C[C@H](NC(=O)[C@H](C(C)C)N(C)C(=O)[C@H]1CCN(S(=O)(=O)N3CC(O)C3)C1)C(=O)N1CCC[C@H](N1)C(=O)OCC(C)(C)C2" , respond with its IC50.
a: 10 to 100 nM

q: Given C=CC(=O)N1CC[C@H](C(=O)N(C)[C@H](C(=O)N[C@H]2Cc3nsc(n3)-c3ccc4c(c3)c(c(-c3cccnc3[C@H](C)OC)n4CC)CC(C)(C)COC(=O)[C@@H]3CCCN(N3)C2=O)C(C)C)C1 (atropisomer, axis not shown) , respond with its IC50.
a: 100 to 1000 nM

q: Given "C=CC(=O)N1CC[C@H](C(=O)N(C)[C@H](C(=O)N[C@H]2Cc3cc(O)cc(c3)-c3ccc4c(c3)c(c(-c3cnccc3[C@H](C)OC)n4CC)CC(C)(C)COC(=O)[C@@H]3CCCN(N3)C2=O)C(C)C)C1" , respond with its IC50.
a: 10 to 100 nM

q: Given CCn1c(-c2cccnc2[C@H](C)OC)c2c3cc(ccc31)-c1csc(n1)C[C@H](NC(=O)[C@H](C(C)C)N(C)C(=O)N1CCN(C(=O)CN(C)C)CC1)C(=O)N1CCC[C@H](N1)C(=O)OCC(C)(C)C2 (atropisomer, axis not shown) , respond with its IC50.
a: 10 to 100 nM

q: Given "CCn1c(-c2cccnc2[C@H](C)OC)c2c3cc(ccc31)-c1csc(n1)C[C@H](NC(=O)[C@H](C1CCCC1)N(C)C(=O)N1CCN(C)CC1)C(=O)N1CCC[C@H](N1)C(=O)OCC(C)(C)C2" , respond with its IC50.
a: 100 to 1000 nM

q: Given "CCn1c(-c2cccnc2[C@H](C)OC)c2c3cc(ccc31)-c1csc(n1)C[C@H](NC(=O)[C@H]1CCO1)C(=O)N1CCC[C@H](N1)C(=O)OCC(C)(C)C2" , respond with its IC50.
a: 100 to 1000 nM

q: Given "CCn1c(-c2cccnc2[C@H](C)OC)c2c3cc(ccc31)-c1cc(O)cc(c1)C[C@H](NC(=O)[C@H](C(C)C)N(C)C(=O)[C@H]1[C@@H]3CNC[C@@H]31)C(=O)N1CCC[C@H](N1)C(=O)OCC(C)(C)C2" , respond with its IC50.
a: 100 to 1000 nM

q: Given CCn1c(-c2cccnc2[C@H](C)OC)c2c3cc(ccc31)-c1csc(n1)C[C@H](NC(=O)[C@H](C(C)C)N(C)C(=O)N1CC[C@@H](N(C)C)C1)C(=O)N1CCC[C@H](N1)C(=O)OCC(C)(C)C2 (atropisomer, axis not shown) , respond with its IC50.
a: 10 to 100 nM

q: Given "CCn1c(-c2cccnc2[C@H](C)OC)c2c3cc(ccc31)-c1csc(n1)C[C@H](NC(=O)[C@H](C(C)C)N(C)C(=O)N1CC3(C1)CS(=O)(=O)CCN3C)C(=O)N1CCC[C@H](N1)C(=O)OCC(C)(C)C2" , respond with its IC50.
a: 100 to 1000 nM

Every entry's value here was drawn from patent US20230233569A1.
